IC50 data for Cytochrome P450 3A4 (Homo sapiens, UniProt P08684) follow.
Field format: number, assumed µM, no unit text.

Lookup result for CC1=C(C(=O)OC(C)C)C(c2ccoc2)n2c(nc3ccccc32)N1 (racemic) ; measured IC50: 2.68

Note to self: IC50 recorded for CCOC(=O)C1=C(C)Nc2nc3ccccc3n2C1c1cnoc1 (racemic) was 4.92

Input CC1=C(C(=O)OC(C)C)C(c2ccco2)n2c(nc3ccccc32)N1 (racemic) . Output IC50: 2.9

The reported value for CCOC(=O)C1=C(C)Nc2nc3ccccc3n2C1c1ncc[nH]1 (racemic) in terms of IC50 is 4.54

---

Provide the recorded inhibition for the entries that follow.
Molecular target: Adenosine receptor A3 (Homo sapiens) (UniProt P0DMS8)
Sequence (whole entry): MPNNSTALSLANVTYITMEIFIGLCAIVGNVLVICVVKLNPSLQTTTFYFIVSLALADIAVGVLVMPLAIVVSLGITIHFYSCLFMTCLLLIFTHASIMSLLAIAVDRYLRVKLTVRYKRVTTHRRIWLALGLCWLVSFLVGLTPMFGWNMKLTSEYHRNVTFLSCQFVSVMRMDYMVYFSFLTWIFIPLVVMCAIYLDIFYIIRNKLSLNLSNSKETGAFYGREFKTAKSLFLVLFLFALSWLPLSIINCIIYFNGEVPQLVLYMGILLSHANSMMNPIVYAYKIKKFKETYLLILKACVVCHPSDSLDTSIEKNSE
Experiment: Displacement [3H]NECA from adenosine A3 receptor in human HeLa cell membranes at 1 uM incubated for 180 mins by scintillation counting method relative to control
I'd appreciate it if you wrote the number followed by its unit.

inhibition reading for CC1=C(C(=O)OC(C)C)C(c2cc[nH]n2)n2c(nc3ccccc32)N1 (racemic) : 2%

According to the records, this compound CC1=C(C(=O)OC(C)C)C(c2cc[nH]c2)n2c(nc3ccccc32)N1 (racemic) displays inhibition of 2%

The compound CCOC(=O)C1=C(C)Nc2nc3ccccc3n2C1c1nccs1 (racemic) showed inhibition equal to 1%

compound CCOC(=O)C1=C(C)Nc2nc3ccccc3n2C1c1cn[nH]c1 (racemic) , inhibition observed: 1%

Reported inhibition for CC1=C(C(=O)OC(C)C)C(c2cnco2)n2c(nc3ccccc32)N1 (racemic) was 39%

---

Experiment: Drug metabolism in human liver microsomes after 60 mins in presence of NADP,glucose-6-phosphate and glucose-6-phosphate dehydrogenase by UPLC-MS/MS analysis
Type: ADME, Microsome
Conditions: read-out: Drug metabolism
readout-type: metabolised at 1 h (%)
Please give a number only; it is taken to be in %.

Value of metabolised at 1 h reported for the compound CCOC(=O)C1=C(C)Nc2nc3ccccc3n2C1c1cocn1 (racemic) is 5.62

---

Target: Adenosine receptor A3 (Homo sapiens)
Assay: Displacement [3H]NECA from adenosine A3 receptor in human HeLa cell membranes at 1 uM incubated for 180 mins by scintillation counting method relative to control
Use 5% as the dividing line for inhibition, with the line itself on the Condition met side and lower values as Condition not met.

Evaluate CC1=C(C(=O)OC(C)C)C(c2cocn2)n2c(nc3ccccc32)N1 (racemic) : inhibition at minimum 5%?
Condition met

Would you say CCOC(=O)C1=C(C)Nc2nc3ccccc3n2C1c1ncc[nH]1 (racemic) shows inhibition at minimum 5%?
Condition not met

Would you say CC1=C(C(=O)OC(C)C)C(c2ccno2)n2c(nc3ccccc32)N1 (racemic) shows inhibition at minimum 5%?
Condition not met

Assess whether reported inhibition for CC1=C(C(=O)OC(C)C)C(c2ccccc2)n2c(nc3ccccc32)N1 (racemic) sits at 5% or higher.
Condition met

Could you please find out whether CC1=C(C(=O)OC(C)C)C(c2cnsc2)n2c(nc3ccccc32)N1 (racemic) has inhibition that meets 5% or exceeds it?
Condition met

Does the reported inhibition for CC1=C(C(=O)OC(C)C)C(c2nccs2)n2c(nc3ccccc32)N1 (racemic) fall at or above the 5% mark?
Condition met

Kindly determine if inhibition recorded for CCOC(=O)C1=C(C)Nc2nc3ccccc3n2C1c1cscn1 (racemic) is above or exactly 5%.
Condition not met

Is inhibition at least 5%? Consider CC1=C(C(=O)OC(C)C)C(c2ncco2)n2c(nc3ccccc32)N1 (racemic)
Condition met

---

Exercise: for every item that follows, state its recorded Ki.
Reply numerically in nM, unit not repeated.

Field Ki (Adenosine receptor A1 (Homo sapiens)), entry CCOC(=O)C1=C(C)Nc2nc3ccccc3n2C1c1ccns1 (racemic) : 20.2

# CC1=C(C(=O)OC(C)C)C(c2cnco2)n2c(nc3ccccc32)N1 (racemic) with Adenosine receptor A1 (Homo sapiens): Ki is 301

# value of Ki, Adenosine receptor A1 (Homo sapiens), item CC1=C(C(=O)OC(C)C)C(c2cn[nH]c2)n2c(nc3ccccc32)N1 (racemic) = 8.3

Adenosine receptor A1 (Homo sapiens) data for CCOC(=O)C1=C(C)Nc2nc3ccccc3n2C1c1cn[nH]c1 (racemic) ; its Ki: 14.8

---

Please respond with reported inhibition at 10 µM for every item in the list.
Biological target: CYP2D6 (Homo sapiens, UniProt P10635)
Sequence (P10635 whole entry): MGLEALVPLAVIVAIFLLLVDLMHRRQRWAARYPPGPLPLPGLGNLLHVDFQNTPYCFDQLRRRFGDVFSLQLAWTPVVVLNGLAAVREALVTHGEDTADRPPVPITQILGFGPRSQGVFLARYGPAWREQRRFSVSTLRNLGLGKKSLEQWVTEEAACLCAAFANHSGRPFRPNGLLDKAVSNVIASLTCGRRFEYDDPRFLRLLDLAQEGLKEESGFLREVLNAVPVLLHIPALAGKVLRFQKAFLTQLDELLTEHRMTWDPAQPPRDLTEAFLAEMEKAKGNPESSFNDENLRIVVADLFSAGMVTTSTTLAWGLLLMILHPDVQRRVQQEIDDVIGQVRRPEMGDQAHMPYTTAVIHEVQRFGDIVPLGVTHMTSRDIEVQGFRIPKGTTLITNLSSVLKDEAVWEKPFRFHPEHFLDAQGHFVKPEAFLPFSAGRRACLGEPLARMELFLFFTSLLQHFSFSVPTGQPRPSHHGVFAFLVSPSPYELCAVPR
Test: Inhibition of CYP2D6 (unknown origin) expressed in insect cell microsomes at 10 uM using dibenzylfluorescein substrate by fluorescence based assay relative to control
Assay type: ADME
Conditions: insect cell microsomes expressing CYP2D6, probe dibenzylfluorescein
Please reply with the bare figure in % and do not write the unit itself.

inhibition at 10 µM recorded for this molecule, CCOC(=O)C1=C(C)Nc2nc3ccccc3n2C1c1cnoc1 (racemic) , is 37

The reported inhibition at 10 µM of the molecule CCOC(=O)C1=C(C)Nc2nc3ccccc3n2C1c1ncc[nH]1 (racemic) was 18

The reported value for CC1=C(C(=O)OC(C)C)C(c2ccoc2)n2c(nc3ccccc32)N1 (racemic) in terms of inhibition at 10 µM is 31

Measured inhibition at 10 µM, CC1=C(C(=O)OC(C)C)C(c2cocn2)n2c(nc3ccccc32)N1 (racemic) : 43

The recorded inhibition at 10 µM for entry CCOC(=O)C1=C(C)Nc2nc3ccccc3n2C1c1cocn1 (racemic) equals 19

Looking up CC1=C(C(=O)OC(C)C)C(c2ccco2)n2c(nc3ccccc32)N1 (racemic) , I found its inhibition at 10 µM recorded as 35

---

Target: Adenosine receptor A1 (Homo sapiens) (UniProt P30542)
Sequence (P30542 whole entry): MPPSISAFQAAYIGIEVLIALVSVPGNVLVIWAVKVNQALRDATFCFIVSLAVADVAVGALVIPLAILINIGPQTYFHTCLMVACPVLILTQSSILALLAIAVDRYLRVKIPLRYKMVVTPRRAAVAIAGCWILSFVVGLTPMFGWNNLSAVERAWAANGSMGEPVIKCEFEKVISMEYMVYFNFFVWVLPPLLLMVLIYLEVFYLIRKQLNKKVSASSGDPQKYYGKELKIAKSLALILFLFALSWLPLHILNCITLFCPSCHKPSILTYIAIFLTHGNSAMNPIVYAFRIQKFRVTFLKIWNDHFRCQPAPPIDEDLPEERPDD
Assay: Displacement [3H]DPCPX from human adenosine A1 receptor expressed in CHO cell membranes at 1 uM incubated for 60 mins by scintillation counting method relative to control
readout-type: inhibition (%)
Write down the numeric answer in % and omit the unit.

Form field inhibition, entry CCOC(=O)C1=C(C)Nc2nc3ccccc3n2C1c1cnsc1 (racemic) : 20

compound CC1=C(C(=O)OC(C)C)C(c2cocn2)n2c(nc3ccccc32)N1 (racemic) , inhibition observed: 7

Measured inhibition of CC1=C(C(=O)OC(C)C)C(c2nccs2)n2c(nc3ccccc32)N1 (racemic) : 5

For this compound ( CCOC(=O)C1=C(C)Nc2nc3ccccc3n2C1c1ncco1 (racemic) ), measured inhibition is 8

Please fill in: inhibition reported for CCOC(=O)C1=C(C)Nc2nc3ccccc3n2C1c1ncc[nH]1 (racemic) = 6

Documented inhibition of CCOC(=O)C1=C(C)Nc2nc3ccccc3n2C1c1ccc(C)o1 (racemic) : 14

Looking up CCOC(=O)C1=C(C)Nc2nc3ccccc3n2C1c1ccon1 (racemic) , I see its inhibition listed as 2

Looking up CC1=C(C(=O)OC(C)C)C(c2cc[nH]n2)n2c(nc3ccccc32)N1 (racemic) , I found its inhibition recorded as 1

For CCOC(=O)C1=C(C)Nc2nc3ccccc3n2C1c1cc[nH]n1 (racemic) the compound record lists inhibition as 8

inhibition reported for this compound CCOC(=O)C1=C(C)Nc2nc3ccccc3n2C1c1cscn1 (racemic) : 1

The reported value for CC1=C(C(=O)OC(C)C)C(c2ccccc2)n2c(nc3ccccc32)N1 (racemic) in terms of inhibition is 9

inhibition measured on CC1=C(C(=O)OC(C)C)Cn2c(nc3ccccc32)N1 = 31

The recorded inhibition for CC1=C(C(=O)OC(C)C)C(c2ncco2)n2c(nc3ccccc32)N1 (racemic) is 1

compound CC1=C(C(=O)OC(C)C)C(c2cnoc2)n2c(nc3ccccc32)N1 (racemic) , inhibition observed: 1

Recorded result, CCOC(=O)C1=C(C)Nc2nc3ccccc3n2C1c1c[nH]cn1 (racemic) , inhibition: 7

Recorded inhibition (compound CC1=C(C(=O)OC(C)C)C(c2cncs2)n2c(nc3ccccc32)N1 (racemic) ): 2

Notebook: CCOC(=O)C1=C(C)Nc2nc3ccccc3n2C1c1ccno1 (racemic) , inhibition read as 1

compound CC1=C(C(=O)OC(C)C)C(c2ccc(C)o2)n2c(nc3ccccc32)N1 (racemic) , inhibition observed: 14

Quick note, inhibition for CC1=C(C(=O)OC(C)C)C(c2ccno2)n2c(nc3ccccc32)N1 (racemic) landed at 37

For record CCOC(=O)C1=C(C)Nc2nc3ccccc3n2C1c1cnoc1 (racemic) the listed inhibition is 21

---

Biological target: Adenosine receptor A2a (Homo sapiens, UniProt P29274)
Sequence (P29274 whole entry): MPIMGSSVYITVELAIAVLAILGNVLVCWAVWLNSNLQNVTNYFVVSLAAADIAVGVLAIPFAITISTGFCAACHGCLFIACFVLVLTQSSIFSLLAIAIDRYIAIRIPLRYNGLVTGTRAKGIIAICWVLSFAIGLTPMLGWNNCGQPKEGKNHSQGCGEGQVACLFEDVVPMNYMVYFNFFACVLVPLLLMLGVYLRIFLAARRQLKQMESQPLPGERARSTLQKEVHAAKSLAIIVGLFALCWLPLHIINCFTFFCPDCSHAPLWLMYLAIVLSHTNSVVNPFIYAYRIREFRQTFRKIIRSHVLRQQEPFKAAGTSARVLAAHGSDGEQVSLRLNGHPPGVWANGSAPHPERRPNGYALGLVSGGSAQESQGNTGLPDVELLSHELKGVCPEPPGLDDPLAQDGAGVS
readout-type: pKi
Please treat pKi as minus the base-10 logarithm of the molar concentration.

Field pKi (entry CCOC(=O)C1=C(C)Nc2nc3ccccc3n2C1c1ncc[nH]1 (racemic) ) reads 8.30

Cited source: ChEMBL document CHEMBL4616721
